Each entry below carries its reported pIC50.
molecular target: GST-RIPK2 fusion protein (human RIPK2, amino acids 1-310) (Homo sapiens); construct: made in house; host or cells: baculovirus infected Sf9 cells; assay: RIPK2 binding competition assay (TR-FRET, Tracer 199 displacement); conditions: 10 nM Tracer 199, 1 nM GST-RIPK2, read-out: RIPK2 IC50
Sequence (O43353 1-310): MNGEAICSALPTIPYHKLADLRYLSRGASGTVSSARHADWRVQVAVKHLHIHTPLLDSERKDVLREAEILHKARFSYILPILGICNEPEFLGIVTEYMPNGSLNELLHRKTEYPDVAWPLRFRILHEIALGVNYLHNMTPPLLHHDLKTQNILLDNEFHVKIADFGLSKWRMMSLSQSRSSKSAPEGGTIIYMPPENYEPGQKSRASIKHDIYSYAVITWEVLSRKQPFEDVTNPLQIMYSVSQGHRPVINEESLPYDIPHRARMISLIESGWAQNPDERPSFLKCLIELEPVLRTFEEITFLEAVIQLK
pIC50: −log10 of the molar value.

Some molecules with known pIC50 results, for comparison:
CC(C)(C)S(=O)(=O)c1cn2c(-c3cc(F)c(N)nc3F)cnc2cc1OCC1(CO)CC1
7.70 to 8.60
COc1ccn2ncc(-c3cc(N)cc(F)c3)c2n1
< 7.70
Cc1nc(N)c(F)cc1-c1cnc2cc(OCCO)c(S(=O)(=O)C(C)(C)C)cn12
< 7.70
COc1cc2ncc(-c3ccc(NC(C)=O)nc3)n2cc1S(=O)(=O)C(C)(C)C
< 7.70
CC(C)(C)S(=O)(=O)c1cn2c(-c3cc(Cl)c(N)nc3F)cnc2cc1OCCO
8.60 to 9.00

[Q] Please look up its pIC50: COc1cc2ncc(-c3cccc(NS(=O)(=O)C4(C)CC4)c3)n2cc1S(=O)(=O)C(C)(C)C
[A] 7.70 to 8.60

[Q] Please look up its pIC50: C[C@H](CO)COc1cn2ncc(-c3cc(F)c(N)nc3F)c2cc1S(=O)(=O)C(C)(C)C
[A] > 9.00

[Q] Please look up its pIC50: COc1cc2ncc(-c3cc(F)c(N)nc3F)n2cc1S(=O)(=O)c1cn[nH]c1
[A] 7.70 to 8.60
